assay: chemical genetic growth profiling, strain panel (AID 1159580);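 also: tested at 20 µM; growth read once vehicle control cultures reached saturation at 30 °C; 1 = growth at the plate median or of vehicle wells; lower values mean less growth of the strain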; details: S. cerevisiae deletion strains, growth OD, locus YLL026W, hits give low values
Out of some 5,500 compounds screened, about 2,000 (36%) were called active. Not shown: some 18% with an inconclusive outcome. This is one part of the list.
The following compounds are shown together with reported normalized growth values.

Recorded normalized growth, per entry:
Exercise: Which normalized growth value is on record for C=C(C)C1CNC(C(=O)O)C1CC(=O)O (stereo unspecified) ?
Solution: 1 (inactive)

Exercise: Which normalized growth value is on record for CCOC(=O)[C@H](CCc1ccccc1)N[C@H]1CCc2ccccc2N(CC(=O)O)C1=O ?
Solution: 0.989 (inactive)

Exercise: Which normalized growth value is on record for CC(C(=O)O)c1ccc(-c2ccccc2)c(F)c1 (stereo unspecified) ?
Solution: 0.987 (inactive)

Exercise: Which normalized growth value is on record for COc1ccc(OC)c(C(O)C(C)N)c1 (stereo unspecified) ?
Solution: 0.99 (inactive)

Exercise: Which normalized growth value is on record for COc1ccc2cc([C@H](C)CO)ccc2c1 ?
Solution: 1.01 (inactive)

Please look at the following compound next.
Exercise: Which normalized growth value is on record for CC(C(=O)O)c1cccc(C(=O)c2ccccc2)c1 (stereo unspecified) ?
Solution: 0.982 (inactive)
